- method: reversal of MRP1-mediated doxorubicin resistance, pilot screen, H69AR cells, doxorubicin co-treatment (AID 601)
- assay.setup: H69AR cells + 2 uM doxorubicin, CellTiter-Glo, 72 h; measured here: viability with 2 uM doxorubicin; at 10 µM; stronger effect = lower value
measured.parameter: viability (%)
Just the number please, in %, no unit attached.

Req: Dear colleague, I am looking for the recorded viability of the following compound: "O=C(Nc1cccnc1)Nc1ccc2c(c1)OCO2"
Resp: 69.8

Req: Dear colleague, I am looking for the recorded viability of the following compound: "Cc1ccc(S(=O)(=O)N2CCOCC(=O)NCCOCCNC(=O)COCC2)cc1"
Resp: 96.9

Req: Dear colleague, I am looking for the recorded viability of the following compound: "Cc1ccc(S(=O)(=O)N[C@@H](C)C(=O)N2CCC(C(=O)N3CCC[C@H]3C(=O)O)CC2)cc1"
Resp: 93.6

Req: Dear colleague, I am looking for the recorded viability of the following compound: "CCn1c(=O)c(C(=O)Nc2cccnc2)c(O)c2ccccc21"
Resp: 91.9

Req: Dear colleague, I am looking for the recorded viability of the following compound: CC(C)=CCCC(C)N(C=O)C(C)CCC=C(C)C (stereo not given)
Resp: 80.7

Req: Dear colleague, I am looking for the recorded viability of the following compound: CCC(CO)Nc1ncnc2c1cnn2-c1ccc(Cl)cc1 (stereo not given)
Resp: 80.2

Req: Dear colleague, I am looking for the recorded viability of the following compound: "Cc1onc(-c2ccccc2)c1C(=O)Nc1ccnn1C1CCCCC1"
Resp: 95.3

Req: Dear colleague, I am looking for the recorded viability of the following compound: "CC(=O)N(c1ccc(N(C(C)=O)S(=O)(=O)c2cccs2)cc1)S(=O)(=O)c1cccs1"
Resp: 108

Req: Dear colleague, I am looking for the recorded viability of the following compound: CC1=C(C)C(=O)NC(Nc2nc(C)c3cc(C)cc(C)c3n2)N1 (stereo not given)
Resp: 10.9

Req: Dear colleague, I am looking for the recorded viability of the following compound: COc1cc2nc(C3CCC3)n(NC(=O)C3CCCC(OC)C3)c(=O)c2cc1OC (stereo not given)
Resp: 97.5

Req: Dear colleague, I am looking for the recorded viability of the following compound: CCCN1C2CCCC1CC(NC(=O)Nc1cccc(C(C)=O)c1)C2 (stereo not given)
Resp: 96.5

Req: Dear colleague, I am looking for the recorded viability of the following compound: "Cc1nn(Cc2ccc(C(=O)NC3CCCCC3)o2)c(C)c1Br"
Resp: 98.7

Req: Dear colleague, I am looking for the recorded viability of the following compound: CC1Cc2ccccc2N1C(=O)CSc1nnc2n1C(C)(C)Cc1ccccc1-2 (stereo not given)
Resp: 90.4

Req: Dear colleague, I am looking for the recorded viability of the following compound: Cc1ccc(CCNC(=O)CC2Oc3ccc(C)cc3NC2=O)cc1 (stereo not given)
Resp: 92.6

Req: Dear colleague, I am looking for the recorded viability of the following compound: "CSc1ccc(Cn2nnc(C(=O)NCc3ccccc3)c2N)cc1"
Resp: 103

Req: Dear colleague, I am looking for the recorded viability of the following compound: "Cc1csc(SCc2nc3sc4c(c3c(=O)[nH]2)CCC4)n1"
Resp: 86

Req: Dear colleague, I am looking for the recorded viability of the following compound: CC(C(=O)NC1CCCCCC1)N(c1ccccc1)S(C)(=O)=O (stereo not given)
Resp: 103

Req: Dear colleague, I am looking for the recorded viability of the following compound: "N#Cc1c2n(c(=S)n(-c3ccccn3)c1=O)CCCCC2"
Resp: 91.1

Req: Dear colleague, I am looking for the recorded viability of the following compound: "O=C1COc2ccc(C(=O)NCc3ccco3)cc2N1"
Resp: 96.1

Req: Dear colleague, I am looking for the recorded viability of the following compound: "Cc1noc(C)c1CSc1nc2cc(S(=O)(=O)N3CCOCC3)ccc2o1"
Resp: 83.9

Req: Dear colleague, I am looking for the recorded viability of the following compound: "Cc1ccc(S(=O)(=O)C2(C(=O)Nc3nccs3)CC2)cc1"
Resp: 95

Req: Dear colleague, I am looking for the recorded viability of the following compound: COc1ccc(C2C3=C(CC(C)(C)CC3=O)Oc3ncn4nc(-c5cccnc5)nc4c32)cc1 (stereo not given)
Resp: 90.9

Req: Dear colleague, I am looking for the recorded viability of the following compound: "CC(C)c1ccc(S(=O)(=O)N2CCN(CCC(=O)Nc3ccc(N(C)C)cc3)CC2)cc1"
Resp: 20.4

Req: Dear colleague, I am looking for the recorded viability of the following compound: CCSCCC(NC1=CC(=O)CC(C)(C)C1)C(=O)O (stereo not given)
Resp: 94.8

Req: Dear colleague, I am looking for the recorded viability of the following compound: "CCOC(=O)N1CCN(C(=O)COc2ccc(S(=O)(=O)NC3CCCCC3)cc2C)CC1"
Resp: 98.5

Req: Dear colleague, I am looking for the recorded viability of the following compound: "Cn1c2ccccc2c2c(C(=O)NCCCN3CCCC3=O)cn(C3CCCCC3)c(=O)c21"
Resp: 80.7

Req: Dear colleague, I am looking for the recorded viability of the following compound: "Cc1nc2scc(-c3cccs3)c2c(=O)n1-n1cccc1"
Resp: 84.8

Req: Dear colleague, I am looking for the recorded viability of the following compound: "O=C(COc1ccccc1)Nc1ccc(-c2nnc(-c3ccco3)o2)cc1"
Resp: 86.8

Req: Dear colleague, I am looking for the recorded viability of the following compound: "N#Cc1c(NC(=O)CSc2nc(N)cc(=O)[nH]2)sc2c1CCCCCC2"
Resp: 86.1

Req: Dear colleague, I am looking for the recorded viability of the following compound: CCCCN(CCCC)CCCNC(=O)CC1Oc2ccc(C)cc2NC1=O (stereo not given)
Resp: 86

Req: Dear colleague, I am looking for the recorded viability of the following compound: COCCNC(=O)CC(NS(=O)(=O)c1ccc(NC(C)=O)cc1)C(C)C (stereo not given)
Resp: 83.7

Req: Dear colleague, I am looking for the recorded viability of the following compound: CCCCC(CC)CNC(=O)C1CCCN(S(=O)(=O)c2cnc[nH]2)C1 (stereo not given)
Resp: 94.1

Req: Dear colleague, I am looking for the recorded viability of the following compound: "CCN(CC)S(=O)(=O)c1ccc(C(=O)Oc2ccc3c(c2)OCO3)cc1"
Resp: 86.1

Req: Dear colleague, I am looking for the recorded viability of the following compound: Cc1ccccc1OCCN1C(=O)NC2(CCc3ccccc32)C1=O (stereo not given)
Resp: 82.7

Req: Dear colleague, I am looking for the recorded viability of the following compound: "CCOc1ccc(NCc2nnc(SCC(=O)Nc3cc(C)on3)n2-c2ccccc2OC)cc1"
Resp: 32.1

Req: Dear colleague, I am looking for the recorded viability of the following compound: "CCc1ccc(NS(=O)(=O)c2cccs2)cc1"
Resp: 94

Req: Dear colleague, I am looking for the recorded viability of the following compound: Cc1nn(C)c(C)c1CNC(=O)c1cc2n(n1)C(C(F)(F)F)CC(c1cccs1)N2 (stereo not given)
Resp: 93.9

Req: Dear colleague, I am looking for the recorded viability of the following compound: N#CC(C(=O)c1ccco1)c1ccccn1 (stereo not given)
Resp: 81.9

Req: Dear colleague, I am looking for the recorded viability of the following compound: "O=c1[nH]c(SCc2ccccc2Cl)nc2c1CCCC2"
Resp: 92.7

Req: Dear colleague, I am looking for the recorded viability of the following compound: "Cc1cc(C)cc(N2CCCn3c2nc2c3c(=O)n(CCN3CCOCC3)c(=O)n2C)c1"
Resp: 83.3

Req: Dear colleague, I am looking for the recorded viability of the following compound: O=C(OC1CCOC1=O)c1ccc(S(=O)(=O)N2CCCCCC2)cc1 (stereo not given)
Resp: 93.6

Req: Dear colleague, I am looking for the recorded viability of the following compound: "CCc1nnc(NC(=O)c2ccc(COc3ccc(C)cc3)o2)s1"
Resp: 111

Req: Dear colleague, I am looking for the recorded viability of the following compound: COc1ccccc1CN1CC(C(=O)N2CCN(c3ccc(F)cc3)CC2)CC1=O (stereo not given)
Resp: 92.3

Req: Dear colleague, I am looking for the recorded viability of the following compound: "Cc1c(NC2=NC3(CCCCC3)Cc3ccccc32)c(=O)n(-c2ccccc2)n1C"
Resp: 87.5

Req: Dear colleague, I am looking for the recorded viability of the following compound: "CC(C)(C)C1=C[C@@H](CO)C[C@@H](CO)C1"
Resp: 87.9
